The origin of these recorded values is patent US8563542B2.

Biological target: PLK1 (Homo sapiens)
Sequence (P53350 whole entry): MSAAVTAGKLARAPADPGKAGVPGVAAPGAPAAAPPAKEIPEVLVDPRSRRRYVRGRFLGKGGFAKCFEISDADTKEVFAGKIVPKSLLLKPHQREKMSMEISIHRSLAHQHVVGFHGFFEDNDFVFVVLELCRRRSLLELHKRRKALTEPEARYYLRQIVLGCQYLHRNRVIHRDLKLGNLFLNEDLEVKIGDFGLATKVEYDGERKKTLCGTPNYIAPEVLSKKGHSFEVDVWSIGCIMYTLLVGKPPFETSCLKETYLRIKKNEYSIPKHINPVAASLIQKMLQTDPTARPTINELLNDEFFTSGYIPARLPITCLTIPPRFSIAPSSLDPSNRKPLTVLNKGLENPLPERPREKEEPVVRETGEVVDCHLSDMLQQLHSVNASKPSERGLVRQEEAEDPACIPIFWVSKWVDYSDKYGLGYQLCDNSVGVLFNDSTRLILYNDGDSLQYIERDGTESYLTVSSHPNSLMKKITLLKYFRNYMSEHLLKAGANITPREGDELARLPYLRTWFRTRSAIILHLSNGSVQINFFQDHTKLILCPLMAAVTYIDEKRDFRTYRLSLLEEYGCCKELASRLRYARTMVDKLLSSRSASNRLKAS
Assay: PLK1 protein kinase assay (CDC25C phosphorylation, [γ-32P]-ATP)
Format: biochemical
Details: Table 2, PLK1 IC50; class symbols; read-out: PLK1 IC50
pIC50: −log10 of the molar value.
Assignment: determine reported pIC50 for the given compounds.

Would you please look over these solved cases?
COc1cc(C(=O)N(C)CCCN(C)C)ccc1Nc1ncc2c(n1)N(C1CCCC1)CCC(=O)N2C = > 6.00
CCC(CO)NC(=O)c1ccc(Nc2ncc3c(n2)N(C2CCCC2)CCC(=O)N3C)c(OC)c1 (stereo not drawn) = > 6.00
COc1cc(C(=O)NCc2ccco2)ccc1Nc1ncc2c(n1)N(C1CCCC1)CC(C)(C)C(=O)N2C = > 7.00
COc1cc(C(=O)NC2CCCN(C)C2)ccc1Nc1ncc2c(n1)N(CC1CC1)CCC(=O)N2C (stereo not drawn) = > 6.00
COc1cc(C(=O)NC2CCN(C)CC2)ccc1Nc1ncc2c(n1)N(c1ccccc1OC)CCC(=O)N2C = > 5.00

Please look at the following compound next.
What measured pIC50 goes with COc1cc(C(=O)N(CCO)CCO)ccc1Nc1ncc2c(n1)N(C1CCCC1)CCC(=O)N2C ?
> 5.00
